- Tested on: M14
- Test Description: NCI tumour cell line growth inhibition, 48 h
Activity calls are given as the source filed them. No stated cut-off is given here; in the data, active = GI50 up to about 1.1 µM and inactive = higher.
# Lookup of reported GI50 keyed by entry

Consider the reported GI50 for these compounds:
{"Compound": "COc1cc(C(Cc2ccccc2)NC(C)=O)oc(=O)c1 (stereo not drawn)", "Data Value": "> 100 µM (inactive)"}
{"Compound": "COCn1c(C)c(C)c2c(=O)oc(=O)[nH]c21", "Data Value": "> 100 µM (inactive)"}

Entry O=C(NC1(C(=O)NNc2nnc(-c3ccccc3)c(-c3ccccc3)n2)C(c2ccccc2)C(c2ccccc2)=NN1c1ccccc1)c1ccccc1 (stereo not drawn) ; GI50 = > 100 µM (inactive)

The compound "CCOC(=O)c1ccc(C(=O)/C(C#N)=C2\CCCN2)n1C" showed GI50 equal to > 100 µM (inactive)

Consider "O=C(OCc1ccccc1)N1CCNCCNCC1" . Its measured GI50 is > 100 µM (inactive)

Reported GI50 ( "CC(=O)N1c2ccccc2Sc2cc(C(O)(C(F)(F)F)C(F)(F)F)ccc21" ) = > 10 µM (inactive)

The value of GI50 measured for the compound "O=C(Nc1cccc2ccccc12)Nn1cnnc1" turned out to be > 100 µM (inactive)

# compound "C=CCON(C(=O)OC(C)(C)C)C(C)(C)C" ; its GI50 = > 100 µM (inactive)

The compound identified as "Nn1c(=O)[nH]c2ncn(Cc3ccccc3)c2c1=O" registered its GI50 at > 100 µM (inactive)

Data point: "Clc1cc(C(c2cc(Cl)sc2Cl)c2cc(Cl)sc2Cl)c(Cl)s1" ; GI50 = > 100 µM (inactive)

For reference, reported GI50 for "Clc1ccc2c(NCCCCCCNc3ccnc4cc(Cl)ccc34)ccnc2c1" stands at 1.88 µM (inactive)

// GI50 lookup, compound = "C/C(CC(=O)Nc1ccc(Cl)cc1)=N\NC(N)=S" , result: 6.47 µM (inactive)

In plain terms, CC1CNC(NS(=O)(=O)c2cc(C(=O)Nc3ccc(Cl)cc3)c(Cl)cc2S)=NN1 (stereo not drawn) has a documented GI50 of 21.7 µM (inactive)

Documented GI50 of CC(=O)NC1C(OCc2ccccc2)OC(CO)C(O)C1OCC(=O)N[C@@H](C)C(=O)N[C@H](CCC(=O)NCCCNc1ccc([N+](=O)[O-])c2[nH]c3ccccc3c(=O)c12)C(N)=O (stereo partly drawn) : > 100 µM (inactive)

GET /value?item= "C=CS(=O)(=O)CCN1CC1" &field=GI50 returns > 10 µM (inactive)

Value of GI50 reported for the compound "O=c1c2c(nc3n1CCC3)sc1c(O)c(Br)ccc12" is > 100 µM (inactive)

So for "COc1ccc(-n2cnc3c2=NC(C)(C)NC=3C(N)=O)c(OC)c1" , the logged GI50 turned out to be > 100 µM (inactive)

Summary for this compound, "Cc1cc2oc3c(ccc(=O)n3C)c(=O)c2c(C)c1Cl" : GI50 is 28.5 µM (inactive)

Origin of values: ChEMBL document CHEMBL1201862
